# Condition Notes: fish
Hi, to clarify the labels: true covers log10 BCF from 2 upward, false covers anything below 2.

Brc1cc(Br)c(Br)c(Oc2c(Br)c(Br)c(Br)c(Br)c2Br)c1 = true
Nc1c(Cl)c(Cl)c(Cl)c(Cl)c1Cl = true
CCOP(=O)(OCC)OCC = false
Oc1ccc(Cl)cc1Cl = false

Task item: For this compound, is measured log10 BCF 2 or higher? O=C(O)c1c(Cl)ccc(Cl)c1Cl
Reply: false

Task item: For this compound, is measured log10 BCF 2 or higher? Brc1ccc(Oc2cc(Br)c(Br)cc2Br)c(Br)c1
Reply: true

----------
Property: melting point; scope: individual compounds
Quick note: give the figure in °C, leave out the unit.

See these solved cases before continuing.
CC1=C(/C=C/C(C)=C/C=C/C(C)=C/C(=O)O)C(C)(C)CCC1 = 181
CCc1cc(C(C)(C)C)c(O)c(C(C)(C)C)c1 = 44
CC(C)(Br)C(=O)O = 48.5
C[C@H]1CC(=O)C[C@@H]2CC[C@H]3[C@@H]4CC[C@H](O)[C@@]4(C)CC[C@@H]3[C@]21C = 204
OCCCc1ccncc1 = 37
O=[N+]([O-])C1CCCCC1 = -34

// melting point lookup, compound = Cc1cc(C)cc(OCC2CNC(=O)O2)c1 (centres undefined) , result: 122

// melting point lookup, compound = Cc1ccccc1CCO , result: 2

// melting point lookup, compound = O=C(O)CCc1c[nH]c2ccccc12 , result: 134

// melting point lookup, compound = C1=Cc2ccccc2CC1 , result: -8

// melting point lookup, compound = CCOC(=O)CC(C)C , result: -99.3

// melting point lookup, compound = Nc1ccc(Br)cc1C(=O)O , result: 220

// melting point lookup, compound = O=c1oc(=O)c2ccccc2c2ccccc12 , result: 217

// melting point lookup, compound = CCCCCCCCCCCO , result: 19

// melting point lookup, compound = C=C(C)C(=O)C(=CC(=O)O)OC , result: 83

// melting point lookup, compound = COP(=S)(OC)SCc1nc(N)nc(N)n1 , result: 165

// melting point lookup, compound = N#CCC=CCC#N , result: 76

// melting point lookup, compound = Cc1ccc(O)c(C(C)C)c1 , result: 36.5

----------
Readout Name: melting point (°C)
Quick note: give the figure in °C, leave out the unit.

Cc1cc2nc3c(=O)[nH]c(=O)nc-3n(C)c2cc1C = 320
Cc1ccc(C(C)C)cc2c(C)ccc1-2 = 31.5

Consider the additional compound presented here.
// melting point lookup, compound = OCc1ccc(Cl)cc1 , result: 75

----------
Okay, here is how we bin by log10 vapour pressure (mmHg): group A = under -4, group B = from -4 up to -0.03, group C = -0.03 and over

Clc1c(Cl)c(Cl)c2ccccc2c1Cl = group A
CC(C)COC=O = group C
CCOP(=S)(OCC)Oc1ncn(-c2ccccc2)n1 = group A
O=CNc1ccccc1 = group B
Clc1ccc(-c2cc(Cl)ccc2Cl)c(Cl)c1 = group A
O=C(O)CCCC(=O)O = group A

Task item: Where would CC1CCC(C)(C)C1 (stereo not given) land among the classes by reported log10 vapour pressure (mmHg)?
Reply: group C

Task item: Where would O=C(OC(=O)C(F)(F)F)C(F)(F)F land among the classes by reported log10 vapour pressure (mmHg)?
Reply: group C

Task item: Where would CCC(=O)c1ccccc1 land among the classes by reported log10 vapour pressure (mmHg)?
Reply: group B

Task item: Where would OC(Cn1cncn1)(c1ccc(F)cc1)c1ccccc1F (stereo not given) land among the classes by reported log10 vapour pressure (mmHg)?
Reply: group A

Data credit: the OPERA property sets (Mansouri et al. 2018)
